- METHOD: gradient 5% acetonitrile 3 min, to 50% in 2 min, to 85% in 15 min, held 3 min, 100 µL/min
- MEASUREMENT SETUP: column: Zorbax Extend-C18 2.1 x 50 mm; eluents: water / acetonitrile, 0.1% formic acid
QUANTITY MEASURED: RP-LC retention time (s)

Solved entries (count: 2):
INSERT INTO assay_data (molecule, quantitative_readout) VALUES
  ('COc1ccc2c(c1)C1(CCN(S(=O)(=O)c3ccc(C#N)cc3)C1)C(=O)N2C (stereo not drawn)', 880),
  ('Cc1ccc(C)c(NC(=O)Cn2nc3c4sc(N(C)C)nc4ncn3c2=O)c1', 694);

[I] COc1ccc(-c2cn3c(CC(=O)Nc4nc5ccc(C)cc5s4)csc3n2)cc1OC
[II] CC1CCCN(S(=O)(=O)c2cc(C(=O)Nc3ccc(F)c(Cl)c3)n(C)c2)C1 (stereo not drawn)
Query: RP-LC retention time comparison. Which is larger, I or II ? Answer format: the label of the selected item.
Result: II

Data provenance: the METLIN SMRT retention time set (Domingo-Almenara et al. 2019)
